Here the recorded pKi is given for each entry.
# assayedTarget: UniProt:P50130
# Sequence (P50130 whole entry): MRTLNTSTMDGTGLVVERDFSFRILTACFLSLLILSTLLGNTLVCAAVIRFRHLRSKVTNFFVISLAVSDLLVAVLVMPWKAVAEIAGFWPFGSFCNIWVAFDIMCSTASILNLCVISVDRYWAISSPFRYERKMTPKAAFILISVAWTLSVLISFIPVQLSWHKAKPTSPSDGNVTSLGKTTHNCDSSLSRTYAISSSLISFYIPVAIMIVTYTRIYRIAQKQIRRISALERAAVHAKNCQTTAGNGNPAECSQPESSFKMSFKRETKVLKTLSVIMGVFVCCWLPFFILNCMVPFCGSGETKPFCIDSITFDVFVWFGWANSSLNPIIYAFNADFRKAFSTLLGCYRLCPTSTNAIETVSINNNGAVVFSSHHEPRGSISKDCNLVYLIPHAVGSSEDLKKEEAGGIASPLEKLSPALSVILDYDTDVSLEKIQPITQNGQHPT
# protocolNotes: Displacement of [3H]SCH-23390 from dopamine D1 receptor in porcine striatal membrane
pKi: −log10 of the molar value.
readoutName: pKi

1. COc1ccccc1N1CCN(Cc2cnn(-c3ccccn3)c2)CC1 | 5.72
2. COc1ccccc1N1CCN(Cc2cn(-c3ccccc3)nn2)CC1 | 4.57
3. Clc1ccc(N2CCN(Cc3cnn(-c4ccccc4)c3)CC2)cc1 | 5.12
4. Cc1c(CN2CCN(c3ccccc3)CC2)cnn1-c1ccccc1 | 6.25
5. Cc1nn(-c2ccccc2)cc1CN1CCN(c2ccccc2)CC1 | 5.41
6. c1ccc(N2CCN(Cc3cnn(-c4ccccc4)c3)CC2)cc1 | 5.80
7. c1ccc(-c2c[nH]c(CN3CCN(c4ccccc4)CC3)c2)cc1 | 5.68
8. C1=C(c2ccccc2)CCN(Cc2cn(-c3ccccc3)nn2)C1 | 5.00
9. COc1ccccc1N1CCN(Cc2cnn(-c3ccccc3)c2)CC1 | 6.00
10. Fc1ccc(N2CCN(Cc3cnn(-c4ccccc4)c3)CC2)cc1 | 5.72
11. c1ccc(-n2cc(CN3CCN(c4ncccn4)CC3)cn2)cc1 | 5.15
